# target-or-system: NLRP3 (Homo sapiens, UniProt Q96P20)
# Sequence (Q96P20 whole entry): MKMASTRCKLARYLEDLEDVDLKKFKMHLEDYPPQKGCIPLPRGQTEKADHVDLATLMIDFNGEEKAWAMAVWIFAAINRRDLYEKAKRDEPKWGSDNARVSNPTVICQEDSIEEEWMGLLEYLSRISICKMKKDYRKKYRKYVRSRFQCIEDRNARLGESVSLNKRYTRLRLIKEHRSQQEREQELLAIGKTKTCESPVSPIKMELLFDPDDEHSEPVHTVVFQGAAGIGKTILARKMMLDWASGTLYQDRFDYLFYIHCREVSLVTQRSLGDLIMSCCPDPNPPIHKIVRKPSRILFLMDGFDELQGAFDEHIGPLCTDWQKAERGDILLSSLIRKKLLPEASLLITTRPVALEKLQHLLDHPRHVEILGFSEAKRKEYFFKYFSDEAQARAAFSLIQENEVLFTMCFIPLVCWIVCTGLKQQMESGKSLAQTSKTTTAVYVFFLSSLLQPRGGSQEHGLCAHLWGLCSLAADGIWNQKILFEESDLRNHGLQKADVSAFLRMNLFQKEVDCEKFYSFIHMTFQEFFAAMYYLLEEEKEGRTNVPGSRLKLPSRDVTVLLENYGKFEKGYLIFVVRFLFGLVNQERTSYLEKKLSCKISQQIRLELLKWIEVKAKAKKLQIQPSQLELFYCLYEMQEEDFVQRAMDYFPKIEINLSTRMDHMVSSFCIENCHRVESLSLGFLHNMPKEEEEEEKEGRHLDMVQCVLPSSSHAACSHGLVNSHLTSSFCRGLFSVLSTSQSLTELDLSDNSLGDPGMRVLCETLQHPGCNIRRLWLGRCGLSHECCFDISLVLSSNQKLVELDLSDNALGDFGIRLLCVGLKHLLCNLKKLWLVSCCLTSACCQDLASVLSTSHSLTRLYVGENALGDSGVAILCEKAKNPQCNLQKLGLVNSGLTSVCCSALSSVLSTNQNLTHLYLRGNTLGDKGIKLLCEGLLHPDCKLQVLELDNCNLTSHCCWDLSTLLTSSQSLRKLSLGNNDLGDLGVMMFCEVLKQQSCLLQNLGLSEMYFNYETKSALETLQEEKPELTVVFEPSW
# protocol-notes: Measurement of IL-1β production in PMA-differentiated THP-1 cells (NLRP3 hIL1B)
reported-property: log10 of EC50 (log10 of the value in nM)
Each number you see is log10 of EC50, and the unit inside the log is nM.

Worked examples follow.
-- ask Look at this compound and give its reported log10 of EC50. Nc1nc(NCc2nccs2)c2ccc(-c3ccn[nH]3)cc2n1 [Example 28]
-- reply 2.38

-- ask Same question, Nc1nc(NC(CO)CO)c2ccc(-c3ccn[nH]3)cc2n1 [Example 74] this time
-- reply 2.89

-- ask Same question, Nc1nc(NCc2ccncn2)c2ccc(-c3ccn[nH]3)cc2n1 [Example 50] this time
-- reply 3.27

-- ask Same question, Nc1nc(NC[C@H]2C[C@@H](O)C2)c2ccc(-c3ccn[nH]3)cc2n1 [Example 166] this time
-- reply 2.91

Now turn to the next compound.
-- ask Look at this compound and give its reported log10 of EC50. Nc1nc(NCCc2cnc[nH]2)c2ccc(-c3ccn[nH]3)cc2n1 [Example 148]
-- reply 2.71

###

# target-or-system: NLRP3 (Homo sapiens, UniProt Q96P20)
# protocol-notes: Measurement of IL-1β production in PMA-differentiated THP-1 cells (NLRP3 hIL1B)
Attribute: log10 of EC50
Each number you see is log10 of EC50, and the unit inside the log is nM.

Worked examples follow.
-- ask Look at this molecule and give its reported log10 of EC50. Nc1nc(N[C@H]2CCC[C@H]2O)c2ccc(-c3ccn[nH]3)cc2n1
-- reply 2.87

-- ask Same question, Nc1nc(N[C@H]2COC[C@@H](O)C2)c2ccc(-c3ccn[nH]3)cc2n1 (single isomer, unassigned) [Example 12] this time
-- reply 3.59

Further cases:
-- ask Look at this molecule and give its reported log10 of EC50. COCCCNc1nc(N)nc2cc(-c3ccn[nH]3)ccc12
-- reply 2.26

-- ask Same question, CN(C)c1cc(-c2cc[nH]n2)cc2nc(N)nc(NCCCO)c12 this time
-- reply 3.97

-- ask Same question, Nc1nc(NCC2(CN3CCOCC3)CC2)c2ccc(-c3cc[nH]n3)cc2n1 this time
-- reply 2.48

-- ask Same question, Nc1nc(NCc2cccnn2)c2ccc(-c3ccn[nH]3)cc2n1 this time
-- reply 2.71

-- ask Same question, Nc1nc(NCCCO)c2c(Cl)cc(-c3cc[nH]n3)cc2n1 this time
-- reply 2.81

-- ask Same question, Nc1nc(NCc2ccc(Cl)cn2)c2ccc(-c3ccn[nH]3)cc2n1 this time
-- reply 2.81

-- ask Same question, Cc1cc(C)c(CNc2nc(N)nc3cc(-c4ccn[nH]4)ccc23)c(=O)[nH]1 this time
-- reply 3.09

###

# target-or-system: NLRP3 (Homo sapiens)
# Construct: host or cells: PMA-differentiated THP-1 cells
# protocol-notes: Measurement of IL-1β production in PMA-differentiated THP-1 cells (NLRP3 hIL1B)
# Assay type: cell-based
Attribute: pEC50
Answer as the number alone; pEC50 is minus log10 of concentration in mol/L.

-- ask Look at this compound and give its reported pEC50. Nc1nc(NCc2cnccn2)c2ccc(-c3ccn[nH]3)cc2n1
-- reply 6.11

-- ask Same question, N#C[C@H]1CC[C@H](Nc2nc(N)nc3cc(-c4ccn[nH]4)ccc23)CC1 this time
-- reply 6.89

-- ask Same question, Nc1nc(NCCCO)c2ccc(-c3ccn[nH]3)cc2n1 this time
-- reply 6.43

Further cases:
-- ask Look at this compound and give its reported pEC50. COc1cc(-c2cc[nH]n2)cc2nc(N)nc(NCCc3ccccn3)c12
-- reply 5.76

###

# target-or-system: NLRP3 (Homo sapiens, UniProt Q96P20)
# Construct: host or cells: PMA-differentiated THP-1 cells
# protocol-notes: Measurement of IL-1β production in PMA-differentiated THP-1 cells (NLRP3 hIL1B)
# Assay type: cell-based
reported-property: log10(EC50) (log10 of the value in µM)
Each number you see is log10 of EC50, and the unit inside the log is µM.

Worked examples follow.
-- ask Look at this compound and give its reported log10(EC50). Nc1nc(N[C@@H]2CC[C@@H](O)[C@@H]2O)c2ccc(-c3ccn[nH]3)cc2n1 (racemic)
-- reply -0.19

-- ask Same question, Nc1nc(NCc2cc[nH]n2)c2ccc(-c3ccn[nH]3)cc2n1 this time
-- reply -0.37

-- ask Same question, CCCCC(CCO)Nc1nc(N)nc2cc(-c3ccn[nH]3)ccc12 (racemic) [Example 99] this time
-- reply -0.13

-- ask Same question, Nc1nc(NOCCO)c2ccc(-c3ccn[nH]3)cc2n1 this time
-- reply 0.48

Now turn to the next compound.
-- ask Look at this compound and give its reported log10(EC50). Nc1nc(NC2CC2)c2ccc(-c3cc[nH]n3)cc2n1
-- reply -1.00

###

Attribute: EC50
# target-or-system: NLRP3 (Homo sapiens, UniProt Q96P20)
# protocol-notes: Measurement of IL-1β production in PMA-differentiated THP-1 cells (NLRP3 hIL1B)
Reply with just the number (in nM).

Worked examples follow.
-- ask Look at this molecule and give its reported EC50. CCCCCNc1nc(N)nc2cc(-c3cc[nH]n3)cc(F)c12
-- reply 710

-- ask Same question, Nc1nc(NCCOCCO)c2ccc(-c3ccn[nH]3)cc2n1 this time
-- reply 1020

-- ask Same question, CC(C)(C)Nc1nc(N)nc2cc(-c3ccn[nH]3)ccc12 this time
-- reply 710

Further cases:
-- ask Look at this molecule and give its reported EC50. Nc1nc(NCc2cc[nH]n2)c2c(Cl)cc(-c3cc[nH]n3)cc2n1
-- reply 370

-- ask Same question, Nc1nc(N[C@@H]2C[C@H]2c2cccnc2)c2ccc(-c3ccn[nH]3)cc2n1 (single isomer, unassigned) [Example 162] this time
-- reply 240

-- ask Same question, Cn1cnc(CNc2nc(N)nc3cc(-c4ccn[nH]4)ccc23)c1 this time
-- reply 8480

-- ask Same question, Nc1nc(NCC#CCO)c2ccc(-c3ccn[nH]3)cc2n1 this time
-- reply 500

-- ask Same question, Nc1nc(NCc2cncnc2)c2ccc(-c3ccn[nH]3)cc2n1 this time
-- reply 460

-- ask Same question, Nc1nc(Nc2ccccc2)c2ccc(-c3ccn[nH]3)cc2n1 this time
-- reply 400

###

# target-or-system: NLRP3 (Homo sapiens)
# protocol-notes: Measurement of IL-1β production in PMA-differentiated THP-1 cells (NLRP3 hIL1B)
reported-property: EC50 (nM)
Reply with just the number (in nM).

Worked examples follow.
-- ask Look at this compound and give its reported EC50. Nc1nc(N[C@@H]2COC[C@H]2O)c2ccc(-c3ccn[nH]3)cc2n1 (racemic)
-- reply 720

-- ask Same question, Nc1nc(NC2CCCOC2)c2ccc(-c3ccn[nH]3)cc2n1 (centres unmarked) this time
-- reply 1980

Further cases:
-- ask Look at this compound and give its reported EC50. CCCCNc1nc(N)nc2cc(-c3ccn[nH]3)ccc12
-- reply 200

-- ask Same question, CC(C)(O)CCNc1nc(N)nc2cc(-c3ccn[nH]3)ccc12 this time
-- reply 460

-- ask Same question, Nc1nc(NCC2(CN3CCCC3)CC2)c2ccc(-c3cc[nH]n3)cc2n1 this time
-- reply 210

###

# target-or-system: NLRP3 (Homo sapiens, UniProt Q96P20)
# protocol-notes: Measurement of IL-1β production in PMA-differentiated THP-1 cells (NLRP3 hIL1B)
# Description: Measurement of IL-1β Production in PMA-Differentiated THP-1 Cells (§1) THP-1 cells were purchased from the American Type Culture Collection and sub-cultured according to instructions from the supplier. […] Cell free supernatant was collected and the production of IL-1β was evaluated by ELISA. […] as §1
reported-property: pEC50
Answer as the number alone; pEC50 is minus log10 of concentration in mol/L.

-- ask Look at this compound and give its reported pEC50. C[C@]1(O)C[C@H](Nc2nc(N)nc3cc(-c4ccn[nH]4)ccc23)C1
-- reply 6.43

-- ask Same question, Nc1nc(N2CCCOCC2)c2c(F)cc(-c3cc[nH]n3)cc2n1 this time
-- reply 5.54

-- ask Same question, Nc1nc(NCCc2ccccn2)c2c(F)cc(-c3cc[nH]n3)cc2n1 this time
-- reply 5.95

Further cases:
-- ask Look at this compound and give its reported pEC50. Nc1nc(NCC2CC2(F)F)c2ccc(-c3cc[nH]n3)cc2n1 (single isomer, unassigned) [Example 198]
-- reply 7.15

###

# target-or-system: NLRP3 (Homo sapiens, UniProt Q96P20)
# protocol-notes: Measurement of IL-1β production in PMA-differentiated THP-1 cells (NLRP3 hIL1B)
pEC50: −log10 of the molar value.
# binarize pEC50: threshold 6 inclusive, high side T, low side F

-- ask # check: pEC50 of Nc1nc(NCc2ccccn2)c2ccc(-c3ccn[nH]3)cc2n1 is greater than or equal to 6
-- reply T

Further cases:
-- ask # check: pEC50 of Nc1nc(N[C@H]2CC[C@@H](O)C2)c2ccc(-c3ccn[nH]3)cc2n1 is greater than or equal to 6
-- reply T

-- ask Same question, Nc1nc(Nc2cnoc2)c2ccc(-c3ccn[nH]3)cc2n1 this time
-- reply T

-- ask Same question, Nc1nc(NCc2ccnnc2)c2ccc(-c3ccn[nH]3)cc2n1 this time
-- reply F

-- ask Same question, CCCCCNc1nc(N)nc2cc(-c3ccn[nH]3)ccc12 this time
-- reply T
